Biological target: L-type calcium channel (LTCC) (Rattus norvegicus)
Construct: differentiated A7r5 cells were trypsinized, then seeded on tissue culture treated 96-well clear-bottom black plates; endogenous in cells
Experiment: FLIPR calcium mobilization (and/or electrophysiological) assay for L-type calcium channel
Settings: calcium mobilization and/or electrophysiological in vitro assay; differentiated A7r5 cells, 90 mM KCl
Procedure: A7r5 (ATCC) cells were maintained and routinely cultured in A7r5 growth medium consisting of Dulbecco's Modified Eagles Medium containing 10% FBS, 100 U/mL penicillin, 100 μg/mL streptomycin, 4 mM L-glutamine, and 0.15% sodium bicarbonate. 80-90% confluent flasks of cells were differentiated using the following differentiation medium: A7r5 Growth Medium plus 1 mM dibutyryl cyclic AMP (Sigma). Cells were differentiated for 8 days by replacing differentiation medium every 2-3 days. […]
Measure: IC50

Exercise: # query: IC50 of entry CCCC(CC(=O)N1CCC(N(C2CC2)S(=O)(=O)c2cccc(C(F)(F)F)c2)CC1)N1CCSCC1 (stereo not drawn)
Solution: 10 to 20 µM

Exercise: Record: CN[C@@H](CC(C)C)C(=O)N1CCC(N(C(C)C)S(=O)(=O)c2cccc(C(F)(F)F)c2)CC1 [fumarate]
Solution: > 20 µM

# evaluate next
Exercise: # query: IC50 of entry `N[C@@H](C(=O)N1CCC(N(C2CC2)S(=O)(=O)c2cccc(C(F)(F)F)c2)CC1)C1CCCCC1`
Solution: > 20 µM

###

Entries and their IC50 values follow.
biological target: N-type calcium channel (NTCC) (Homo sapiens); construct: endogenous in cells; assay: FLIPR calcium mobilization (and/or electrophysiological) assay for N-type calcium channel; settings: calcium mobilization and/or electrophysiological in vitro assay; differentiated IMR32 cells, 90 mM KCl, 5 μM nitrendipine
Sequence (Q00975 whole entry): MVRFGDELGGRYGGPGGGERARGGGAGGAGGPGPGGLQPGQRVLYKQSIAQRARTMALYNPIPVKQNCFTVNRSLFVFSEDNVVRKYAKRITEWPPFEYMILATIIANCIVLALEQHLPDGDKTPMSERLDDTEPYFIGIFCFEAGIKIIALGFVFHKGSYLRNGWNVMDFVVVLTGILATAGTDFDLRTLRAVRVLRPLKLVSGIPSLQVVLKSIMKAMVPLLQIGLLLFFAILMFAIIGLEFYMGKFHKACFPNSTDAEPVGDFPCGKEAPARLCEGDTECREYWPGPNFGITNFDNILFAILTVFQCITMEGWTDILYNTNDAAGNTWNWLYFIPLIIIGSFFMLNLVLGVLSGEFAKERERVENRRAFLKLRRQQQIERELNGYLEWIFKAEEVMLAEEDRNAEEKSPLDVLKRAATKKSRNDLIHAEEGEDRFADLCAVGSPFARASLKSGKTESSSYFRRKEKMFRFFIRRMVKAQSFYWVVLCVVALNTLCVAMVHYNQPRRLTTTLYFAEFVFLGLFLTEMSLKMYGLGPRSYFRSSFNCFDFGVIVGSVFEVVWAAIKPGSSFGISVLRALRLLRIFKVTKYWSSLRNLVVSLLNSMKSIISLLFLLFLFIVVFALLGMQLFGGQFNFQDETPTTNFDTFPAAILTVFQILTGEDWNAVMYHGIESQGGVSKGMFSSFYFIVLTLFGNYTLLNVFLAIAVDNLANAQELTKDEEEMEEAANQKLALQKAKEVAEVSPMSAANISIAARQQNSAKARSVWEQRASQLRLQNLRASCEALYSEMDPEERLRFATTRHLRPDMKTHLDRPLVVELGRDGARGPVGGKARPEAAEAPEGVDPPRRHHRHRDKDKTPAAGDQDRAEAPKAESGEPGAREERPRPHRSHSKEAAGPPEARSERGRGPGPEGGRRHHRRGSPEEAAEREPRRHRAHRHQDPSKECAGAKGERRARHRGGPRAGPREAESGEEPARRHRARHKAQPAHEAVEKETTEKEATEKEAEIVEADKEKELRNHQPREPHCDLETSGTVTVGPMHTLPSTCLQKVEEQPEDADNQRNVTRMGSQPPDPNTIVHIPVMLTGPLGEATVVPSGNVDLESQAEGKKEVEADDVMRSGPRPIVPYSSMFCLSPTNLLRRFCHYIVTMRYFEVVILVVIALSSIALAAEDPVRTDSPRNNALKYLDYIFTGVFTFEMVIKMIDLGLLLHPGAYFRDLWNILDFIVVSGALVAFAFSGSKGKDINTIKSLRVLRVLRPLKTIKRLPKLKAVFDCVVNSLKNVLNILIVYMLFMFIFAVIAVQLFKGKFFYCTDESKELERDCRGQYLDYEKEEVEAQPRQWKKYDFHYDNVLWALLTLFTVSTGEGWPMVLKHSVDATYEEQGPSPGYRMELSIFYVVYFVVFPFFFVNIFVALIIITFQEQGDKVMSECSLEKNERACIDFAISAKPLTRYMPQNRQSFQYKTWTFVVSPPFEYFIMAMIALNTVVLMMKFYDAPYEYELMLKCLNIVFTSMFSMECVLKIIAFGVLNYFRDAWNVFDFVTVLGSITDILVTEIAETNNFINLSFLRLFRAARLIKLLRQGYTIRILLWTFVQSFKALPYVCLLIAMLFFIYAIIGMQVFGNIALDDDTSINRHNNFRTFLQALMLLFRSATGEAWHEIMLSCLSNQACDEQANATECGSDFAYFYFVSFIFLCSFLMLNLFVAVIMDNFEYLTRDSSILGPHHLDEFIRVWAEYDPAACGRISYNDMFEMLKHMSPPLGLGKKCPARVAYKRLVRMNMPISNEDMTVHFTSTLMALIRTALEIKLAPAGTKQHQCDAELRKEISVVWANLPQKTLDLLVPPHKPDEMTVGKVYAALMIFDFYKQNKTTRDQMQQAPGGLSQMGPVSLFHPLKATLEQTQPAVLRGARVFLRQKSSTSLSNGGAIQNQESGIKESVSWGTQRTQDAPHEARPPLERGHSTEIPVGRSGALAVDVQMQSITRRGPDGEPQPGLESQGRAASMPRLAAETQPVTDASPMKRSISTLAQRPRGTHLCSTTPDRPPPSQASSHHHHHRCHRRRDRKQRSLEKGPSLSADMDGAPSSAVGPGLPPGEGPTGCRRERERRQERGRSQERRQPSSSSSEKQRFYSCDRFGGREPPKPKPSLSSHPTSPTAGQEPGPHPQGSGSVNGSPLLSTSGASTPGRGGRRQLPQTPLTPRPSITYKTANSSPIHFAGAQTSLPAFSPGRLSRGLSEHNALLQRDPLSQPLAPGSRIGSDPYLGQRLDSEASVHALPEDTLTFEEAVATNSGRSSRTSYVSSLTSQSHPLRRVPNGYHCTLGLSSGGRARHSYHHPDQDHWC
Sequence (P54284 whole entry partner): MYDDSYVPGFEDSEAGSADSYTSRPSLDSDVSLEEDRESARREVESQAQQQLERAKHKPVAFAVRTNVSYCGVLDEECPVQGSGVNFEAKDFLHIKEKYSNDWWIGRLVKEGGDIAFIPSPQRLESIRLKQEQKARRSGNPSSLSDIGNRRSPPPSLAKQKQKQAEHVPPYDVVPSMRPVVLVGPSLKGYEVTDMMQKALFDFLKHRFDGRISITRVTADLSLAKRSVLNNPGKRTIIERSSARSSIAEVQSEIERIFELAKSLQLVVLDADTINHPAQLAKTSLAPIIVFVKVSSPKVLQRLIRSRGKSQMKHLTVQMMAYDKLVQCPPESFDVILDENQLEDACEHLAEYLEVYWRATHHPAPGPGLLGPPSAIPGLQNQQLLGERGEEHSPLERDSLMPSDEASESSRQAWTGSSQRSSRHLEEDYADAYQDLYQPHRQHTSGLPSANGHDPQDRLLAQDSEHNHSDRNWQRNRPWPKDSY
Sequence (P54289 25-956 partner limits assumed): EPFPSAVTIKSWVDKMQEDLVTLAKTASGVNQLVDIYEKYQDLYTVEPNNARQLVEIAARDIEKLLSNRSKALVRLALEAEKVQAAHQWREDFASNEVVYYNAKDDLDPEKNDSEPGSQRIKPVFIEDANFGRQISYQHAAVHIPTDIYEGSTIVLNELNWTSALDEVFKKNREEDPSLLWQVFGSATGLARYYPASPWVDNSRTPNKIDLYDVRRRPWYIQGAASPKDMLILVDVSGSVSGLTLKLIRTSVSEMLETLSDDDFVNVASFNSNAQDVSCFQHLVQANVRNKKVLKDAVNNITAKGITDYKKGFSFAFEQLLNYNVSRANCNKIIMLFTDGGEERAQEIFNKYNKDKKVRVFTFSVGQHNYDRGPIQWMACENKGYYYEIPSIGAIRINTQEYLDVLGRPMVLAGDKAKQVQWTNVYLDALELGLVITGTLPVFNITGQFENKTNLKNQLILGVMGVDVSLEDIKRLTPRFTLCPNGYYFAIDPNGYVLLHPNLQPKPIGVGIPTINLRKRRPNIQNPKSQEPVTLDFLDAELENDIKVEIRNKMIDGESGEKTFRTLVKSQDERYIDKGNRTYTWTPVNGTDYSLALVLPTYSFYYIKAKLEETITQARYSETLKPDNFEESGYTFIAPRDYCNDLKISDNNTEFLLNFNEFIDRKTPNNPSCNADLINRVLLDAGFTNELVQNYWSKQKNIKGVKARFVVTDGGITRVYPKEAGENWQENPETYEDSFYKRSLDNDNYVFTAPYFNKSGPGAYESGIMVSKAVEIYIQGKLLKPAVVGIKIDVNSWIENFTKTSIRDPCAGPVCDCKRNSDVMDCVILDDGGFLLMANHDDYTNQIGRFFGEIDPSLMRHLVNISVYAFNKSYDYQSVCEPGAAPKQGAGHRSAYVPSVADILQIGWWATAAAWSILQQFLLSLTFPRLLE
Sequence (P54289 957-1103 partner limits assumed): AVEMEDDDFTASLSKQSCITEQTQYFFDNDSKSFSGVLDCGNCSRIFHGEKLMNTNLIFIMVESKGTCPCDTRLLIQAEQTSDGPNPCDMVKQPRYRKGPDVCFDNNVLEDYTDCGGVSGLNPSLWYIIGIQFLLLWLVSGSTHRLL
The reply should contain only the number, in nM.

A selection of reference data follows.
Exercise: # query: IC50 of entry `CN[C@@H](CC(C)C)C(=O)N1CCC(N(CCOC)S(=O)(=O)c2cccc(C(F)(F)F)c2)CC1`
Solution: 1220

Exercise: Record: CN[C@@H](CC(C)C)C(=O)N1CCC(N(C)S(=O)(=O)c2cccc(C(F)(F)F)c2)CC1 [fumarate]
Solution: 390

***
Exercise: # query: IC50 of entry `CN[C@@H](CC(C)C)C(=O)N1CCC(N(C2CC2)S(=O)(=O)c2cccc(C)c2)CC1`
Solution: 8290

Exercise: Record: `O=C(CCC(c1ccc(F)cc1)c1ccc(F)cc1)N1CCC(N(C2CC2)S(=O)(=O)c2ccccc2)CC1`
Solution: 1090

Exercise: Record: `O=S(=O)(c1cccc(C(F)(F)F)c1)N(C1CC1)C1CCN(CCOC(c2ccc(F)cc2)c2ccc(F)cc2)CC1`
Solution: 780
